system: NCI-H650; assay: relative viability (nuclei count vs DMSO), 5 days (fraction); higher = more cells survive; details: first compound 0.253 µM
So basically: is relative viability under 0.4? Then 1.0. Not under? Then 0.0.

INSERT INTO results (compound, class_label) VALUES
  ('O=c1cc(-c2cccc3c2Sc2ccccc2S3)oc(N2CCOCC2)c1 + Cc1cc(Nc2cc(N3CCN(C)CC3)nc(Sc3ccc(NC(=O)C4CC4)cc3)n2)n[nH]1 [Tozasertib] (partner 0.1 µM)', 0.0),
  ('O=c1cc(-c2cccc3c2Sc2ccccc2S3)oc(N2CCOCC2)c1 + N=C(N)NC(=N)NCCc1ccccc1 [Phenformin] (partner 250 µM)', 0.0),
  ('O=c1cc(-c2cccc3c2Sc2ccccc2S3)oc(N2CCOCC2)c1 + Nc1ncn([C@H]2C[C@H](O)[C@@H](CO)O2)c(=O)n1 [Decitabine] (partner 2 µM)', 1.0),
  ('O=c1cc(-c2cccc3c2Sc2ccccc2S3)oc(N2CCOCC2)c1 + COc1cc2c(Oc3ccc(NC(=O)C4(C(=O)Nc5ccc(F)cc5)CC4)cc3F)ccnc2cc1OCCCN1CCOCC1 [Foretinib] (partner 0.25 µM)', 0.0);

* * *

test system: NCI-H1755; experiment: relative viability (nuclei count vs DMSO), 5 days (fraction); higher = more cells survive; settings: first compound 0.2 µM
measured_metric: relative viability

INSERT INTO results (compound, study_system, measured_metric, result) VALUES
  ('COCC1(CO)C(=O)C2CCN1CC2 (stereo not drawn) [PRIMA-1MET] + N=C(N)NC(=N)NCCc1ccccc1 [Phenformin] (partner 250 µM)', 'NCI-H1755', 'relative viability', 0.613),
  ('COCC1(CO)C(=O)C2CCN1CC2 (stereo not drawn) [PRIMA-1MET] + CC(C)C[C@H](NC(=O)[C@H](Cc1ccccc1)NC(=O)c1cnccn1)B(O)O [Bortezomib] (partner 0.002 µM)', 'NCI-H1755', 'relative viability', 1.11),
  ('COCC1(CO)C(=O)C2CCN1CC2 (stereo not drawn) [PRIMA-1MET] + CC(=O)Nc1cccc(-n2c(=O)n(C3CC3)c(=O)c3c(Nc4ccc(I)cc4F)n(C)c(=O)c(C)c32)c1 [Trametinib] (partner 0.02 µM)', 'NCI-H1755', 'relative viability', 0.676);

* * *

test system: A549; experiment: relative viability (nuclei count vs DMSO), 5 days (fraction); higher = more cells survive; conditions: first compound 0.08 µM
measured_metric: relative viability

INSERT INTO results (compound, result) VALUES
  ('O=c1cc(-c2cccc3c2Sc2ccccc2S3)oc(N2CCOCC2)c1 + O=C(c1cc(Cc2n[nH]c(=O)c3ccccc23)ccc1F)N1CCN(C(=O)C2CC2)CC1 [Olaparib] (partner 8 µM)', 0.224),
  ('O=c1cc(-c2cccc3c2Sc2ccccc2S3)oc(N2CCOCC2)c1 + C[C@]1(O)C[C@@H](c2nc(-c3ccc4ccc(-c5ccccc5)nc4c3)c3c(N)nccn32)C1 [Linsitinib] (partner 1 µM)', 0.586),
  ('O=c1cc(-c2cccc3c2Sc2ccccc2S3)oc(N2CCOCC2)c1 + CS(=O)(=O)N1CCN(Cc2cc3nc(-c4cccc5[nH]ncc45)nc(N4CCOCC4)c3s2)CC1 [Pictilisib] (partner 1 µM)', 0.542),
  ('COc1nc(C)cnc1NS(=O)(=O)c1cccnc1-c1ccc(-c2nnco2)cc1 [Zibotentan] + CC1(C)CCC(c2ccc(Cl)cc2)=C(CN2CCN(c3ccc(C(=O)NS(=O)(=O)c4ccc(N[C@H](CCN5CCOCC5)CSc5ccccc5)c(S(=O)(=O)C(F)(F)F)c4)cc3)CC2)C1 [Navitoclax] (partner 0.5 µM)', 1.45),
  ('O=c1cc(-c2cccc3c2Sc2ccccc2S3)oc(N2CCOCC2)c1 + CC1(C)CCC(c2ccc(Cl)cc2)=C(CN2CCN(c3ccc(C(=O)NS(=O)(=O)c4ccc(N[C@H](CCN5CCOCC5)CSc5ccccc5)c(S(=O)(=O)C(F)(F)F)c4)cc3)CC2)C1 [Navitoclax] (partner 0.5 µM)', 1.14);

Origin of measurements: the supplement of paper PMC10307832
